tested on: SK-OV-3 multi-cell spheroids, viability; assay: Anticancer human tumor SK-OV-3 cell line growth inhibition [IpAb]; conditions: second compound 0.0316 µM; first compound 0.1 µM; active = viability on the fitted dose curve at most 10% of control; inactive = the rest;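 also: viability read after seven days of drug exposure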
Labels: active, inactive

molecule	class.label
C=CCn1c(=O)c2cnc(Nc3ccc(N4CCN(C)CC4)cc3)nc2n1-c1cccc(C(C)(C)O)n1 + CCN1CCN(Cc2ccc(Nc3ncc(F)c(-c4cc(F)c5nc(C)n(C(C)C)c5c4)n3)nc2)CC1	inactive
Cn1nccc1Nc1nccc(-c2ccn(C(CO)c3ccc(Cl)c(F)c3)c(=O)c2)n1 (stereo not given) + CCN1CCN(Cc2ccc(Nc3ncc(F)c(-c4cc(F)c5nc(C)n(C(C)C)c5c4)n3)nc2)CC1	inactive
CCCS(=O)(=O)Nc1ccc(F)c(C(=O)c2c[nH]c3ncc(-c4ccc(Cl)cc4)cc23)c1F + CCN1CCN(Cc2ccc(Nc3ncc(F)c(-c4cc(F)c5nc(C)n(C(C)C)c5c4)n3)nc2)CC1	inactive
CC1(C)CCC(CN2CCN(c3ccc(C(=O)NS(=O)(=O)c4ccc(NCC5CCOCC5)c([N+](=O)[O-])c4)c(Oc4cnc5[nH]ccc5c4)c3)CC2)=C(c2ccc(Cl)cc2)C1 + CCN1CCN(Cc2ccc(Nc3ncc(F)c(-c4cc(F)c5nc(C)n(C(C)C)c5c4)n3)nc2)CC1	inactive
COc1c(OCCCN2CCOCC2)ccc2c3n(c(=NC(=O)c4cnc(N)nc4)nc12)CCN3 + CCN1CCN(Cc2ccc(Nc3ncc(F)c(-c4cc(F)c5nc(C)n(C(C)C)c5c4)n3)nc2)CC1	active
